Origin of values: patent US9320276B2

Here the recorded logP is given for each entry.
- Assay: logP by HPLC on reversed-phase column (EEC Directive 79/831 Annex V.A8)
- Type: physicochemical
- Setup Conditions: HPLC on reversed-phase column (C 18), 40° C., 0.1% aqueous formic acid and acetonitrile, linear gradient 10% to 90% acetonitrile
The reply should be a number, written without any unit.

{"Molecule": "CC(C)C(c1cncnc1)N(C)C(=O)c1c(C(F)F)nn(C)c1Cl (centres unmarked)", "Measurement Type": "logP", "Observed": 1.76}
{"Molecule": "CC(C)N(Cc1ccc(Cl)nc1)C(=O)c1c(C(F)F)nn(C)c1F", "Measurement Type": "logP", "Observed": 2.33}
{"Molecule": "Cn1nc(C(F)F)c(C(=O)NC2(c3ccco3)CCCC2)c1F", "Measurement Type": "logP", "Observed": 2.70}

Given item CC(c1cc(Cl)sc1Cl)N(C(=O)c1c(C(F)F)nn(C)c1Cl)C1CC1 (centres unmarked) , the value recorded as its logP is 4.24

Given item Cn1nc(C(F)F)c(C(=O)N(Cc2cc(C(F)(F)F)nc3ccccc23)C2CC2)c1F , the value recorded as its logP is 3.58

====

- Assay: logP by HPLC on reversed-phase column (EEC Directive 79/831 Annex V.A8)
- Assay type: physicochemical
- Setup Conditions: HPLC on reversed-phase column (C 18), 40° C., 0.1% aqueous formic acid and acetonitrile, linear gradient 10% to 90% acetonitrile
- Description: In table 1, the logP values were determined in accordance with EEC Directive 79/831 Annex V.A8 by HPLC (High Performance Liquid Chromatography) on a reversed-phase column (C 18), using the method described below: Temperature: 40° C.; Mobile phases: 0.1% aqueous formic acid and acetonitrile; linear gradient from 10% acetonitrile to 90% acetonitrile. […]
API: label(entry) gives criterion met if the entry's logP is strictly smaller than 3; on equality or larger values it gives criterion not met.

Look over these answered cases.
{"Smiles Repr": "Cn1nc(C(F)F)c(C(=O)N(Cc2csc3ccc(Cl)cc23)C2CC2)c1Cl", "Label Class": "criterion not met"}
{"Smiles Repr": "Cn1nc(C(F)F)c(C(=O)NCc2csc3ccccc23)c1Cl", "Label Class": "criterion met"}
{"Smiles Repr": "CN(Cc1ccco1)C(=O)c1c(C(F)F)nn(C)c1F", "Label Class": "criterion met"}
{"Smiles Repr": "Cn1nc(C(F)F)c(C(=O)N(Cc2cc(-c3cc(F)c(F)c(F)c3)no2)C2CC2)c1F", "Label Class": "criterion not met"}

Input line: Determine whether this molecule shows logP lower than 3 (ties excluded): Cn1nc(C(F)F)c(C(=O)N(Cc2ccc(Cl)nc2)C2CC2)c1Cl
Output line: criterion met

Input line: Determine whether this molecule shows logP lower than 3 (ties excluded): Cn1nc(C(F)F)c(C(=O)N(Cc2ccnc3cc(Cl)cc(Cl)c23)C2CC2)c1Cl
Output line: criterion not met

Input line: Determine whether this molecule shows logP lower than 3 (ties excluded): CCN(Cc1c(C)nn(CC)c1C)C(=O)c1c(C(F)F)nn(C)c1Cl
Output line: criterion met

Input line: Determine whether this molecule shows logP lower than 3 (ties excluded): Cc1c(CN(C(=O)c2c(C(F)F)nn(C)c2F)C2CC2)sc2ccccc12
Output line: criterion not met

====

Here the recorded Efficacy is given for each entry.
- Test system: Pyrenophora teres
- Assay: in vivo preventive test on Pyrenophora teres (barley)
- Setup Conditions: 500 ppm of active ingredient, evaluated 7-9 days after inoculation
The answer is to be given in %; state only the numeric part.

{"Compound": "Cn1nc(C(F)F)c(C(=O)N(Cc2cc(-c3ccccc3)no2)C2CC2)c1F [Example 111]", "Target Or System": "Pyrenophora teres", "Measurement Type": "Efficacy", "Observed": 100}

Given item Cn1nc(C(F)F)c(C(=S)N(Cc2c(Cl)cncc2Cl)C2CC2)c1F [Example 117] , the value recorded as its Efficacy is 100

Given item Cn1nc(C(F)F)c(C(=O)N(Cc2cc(C(F)(F)F)nc3ccccc23)C2CC2)c1F [Example 159] , the value recorded as its Efficacy is 100

Given item Cn1nc(C(F)F)c(C(=O)N(Cc2nc3ccccc3s2)C2CC2)c1F [Example 98] , the value recorded as its Efficacy is 100

Given item Cn1nc(C(F)F)c(C(=O)N(Cc2ccc(Cl)nc2)C2CC2)c1F [Example 67] , the value recorded as its Efficacy is 90
